Method Summary: Transmission electron microscope (negative staining) of peptide assemblies
Experimental Setup: TEM, negative staining with uranyl acetate, 120 kV; line of the table gives 120 mM
Where a SMILES comes first, the peptide text is derived from it.
Quantity: Morphology

>>> reported("CC[C@H](C)[C@H](N)C(=O)N[C@@H](Cc1c[nH]c2ccccc12)C(=O)N1CCC[C@H]1C(=O)N[C@@H](Cc1c[nH]c2ccccc12)C(=O)O [IWPW] (H-IWPW-OH)")
"aggregates"
>>> reported("NCC(=O)NCC(=O)NCC(=O)NCC(=O)O [GGGG] (H-GGGG-OH)")
"aggregates"
>>> reported("N[C@@H](Cc1c[nH]c2ccccc12)C(=O)N[C@@H](Cc1c[nH]c2ccccc12)C(=O)N[C@@H](Cc1c[nH]c2ccccc12)C(=O)N[C@@H](Cc1c[nH]c2ccccc12)C(=O)O [WWWW] (H-WWWW-OH)")
"sphere"
>>> reported("N[C@@H](Cc1c[nH]c2ccccc12)C(=O)N1CCC[C@H]1C(=O)N[C@@H](Cc1ccc(O)cc1)C(=O)N[C@@H](Cc1ccc(O)cc1)C(=O)O [WPYY] (H-WPYY-OH)")
"sphere"
>>> reported("CC(C)[C@H](N)C(=O)N[C@@H](C)C(=O)N[C@@H](Cc1ccccc1)C(=O)N[C@@H](Cc1ccc(O)cc1)C(=O)O [VAFY] (H-VAFY-OH)")
"sphere"
>>> reported("CC(C)C[C@H](NC(=O)CN)C(=O)N[C@@H](CC(C)C)C(=O)N[C@@H](Cc1ccc(O)cc1)C(=O)O [GLLY] (H-GLLY-OH)")
"sheet"
>>> reported("CC(C)C[C@H](N)C(=O)N[C@@H](CCCNC(=N)N)C(=O)N[C@@H](Cc1ccccc1)C(=O)N[C@@H](Cc1c[nH]cn1)C(=O)O [LRFH] (H-LRFH-OH)")
"particle"
>>> reported("CC[C@H](C)[C@H](NC(=O)[C@@H](NC(=O)[C@@H](N)CC(C)C)C(C)C)C(=O)N[C@@H](Cc1ccc(O)cc1)C(=O)O [LVIY] (H-LVIY-OH)")
"sheet"
>>> reported("NC(=O)C[C@H](NC(=O)[C@H](CC(N)=O)NC(=O)[C@H](CC(N)=O)NC(=O)[C@@H](N)CC(N)=O)C(=O)O [NNNN] (H-NNNN-OH)")
"aggregates"
>>> reported("CC(C)C[C@H](NC(=O)[C@H](C)NC(=O)[C@@H](N)C(C)C)C(=O)N[C@H](C(=O)O)C(C)C [VALV] (H-VALV-OH)")
"aggregates"
>>> reported("C[C@H](NC(=O)[C@@H](N)Cc1ccccc1)C(=O)N[C@@H](Cc1ccccc1)C(=O)N1CCC[C@H]1C(=O)O [FAFP] (H-FAFP-OH)")
"particle"
>>> reported("N[C@@H](Cc1ccccc1)C(=O)N[C@@H](CS)C(=O)N[C@@H](Cc1c[nH]c2ccccc12)C(=O)N[C@@H](Cc1c[nH]c2ccccc12)C(=O)O [FCWW] (H-FCWW-OH)")
"aggregates"
>>> reported("CC(C)[C@H](NC(=O)[C@@H](N)Cc1ccc(O)cc1)C(=O)N[C@@H](Cc1ccccc1)C(=O)N[C@@H](C)C(=O)O [YVFA] (H-YVFA-OH)")
"sphere"
>>> reported("CC[C@H](C)[C@H](N)C(=O)N[C@H](C(=O)N[C@H](C(=O)N[C@@H](CCCNC(=N)N)C(=O)O)[C@@H](C)CC)[C@@H](C)CC [IIIR] (H-IIIR-OH)")
"aggregates"
>>> reported("C[C@@H](O)[C@H](N)C(=O)NCC(=O)N[C@@H](Cc1ccccc1)C(=O)N[C@@H](Cc1ccccc1)C(=O)O [TGFF] (H-TGFF-OH)")
"aggregates"

* * *

Method Summary: Peptide hydrogel formation, vial-inverting method
Format: physicochemical
Parameters: key: 0: no hydrogel; 1: hydrogel
Experimental Setup: peptide concentration 120 mM; vial-inverting method; 1 = hydrogel, 0 = no hydrogel
Where a SMILES comes first, the peptide text is derived from it.
Entries and their measured GELATION follow.
Quantity: GELATION

>>> reported("CSCC[C@H](NC(=O)[C@@H](N)CCC(N)=O)C(=O)N[C@H](C(=O)N[C@H](C(=O)O)C(C)C)C(C)C [QMVV] (H-QMVV-OH)")
1
>>> reported("NC(=O)C[C@H](NC(=O)[C@H](CC(N)=O)NC(=O)[C@H](CC(N)=O)NC(=O)[C@@H](N)CC(N)=O)C(=O)O [NNNN] (H-NNNN-OH)")
0
>>> reported("CC(C)C[C@H](NC(=O)[C@@H](NC(=O)[C@H](CC(C)C)NC(=O)[C@@H](N)C(C)C)C(C)C)C(=O)O [VLVL] (H-VLVL-OH)")
1
>>> reported("CC[C@H](C)[C@H](NC(=O)[C@H](Cc1ccccc1)NC(=O)[C@@H](NC(=O)[C@@H](N)Cc1c[nH]c2ccccc12)C(C)C)C(=O)O [WVFI] (H-WVFI-OH)")
0

* * *

Method Summary: Peptide hydrogel formation, vial-inverting method
Assay type: physicochemical
Set-up: key: 0: no hydrogel; 1: hydrogel
Experimental Setup: peptide concentration 120 mM; vial-inverting method; 1 = hydrogel, 0 = no hydrogel
Where a SMILES comes first, the peptide text is derived from it.
Quantity: GELATION

>>> reported("CC[C@H](C)[C@H](N)C(=O)N[C@@H](Cc1c[nH]cn1)C(=O)N[C@@H](Cc1ccccc1)C(=O)N[C@H](C(=O)O)C(C)C [IHFV] (H-IHFV-OH)")
0
>>> reported("CC[C@H](C)[C@H](N)C(=O)N[C@@H](CCCNC(=N)N)C(=O)N[C@H](C(=O)N[C@@H](Cc1c[nH]c2ccccc12)C(=O)O)C(C)C [IRVW] (H-IRVW-OH)")
0
>>> reported("N[C@@H](CCC(=O)O)C(=O)N[C@@H](CCC(=O)O)C(=O)N[C@@H](CCC(=O)O)C(=O)N[C@@H](CCC(=O)O)C(=O)O [EEEE] (H-EEEE-OH)")
0
>>> reported("CC[C@H](C)[C@H](NC(=O)[C@H](Cc1c[nH]c2ccccc12)NC(=O)[C@@H](N)C(C)C)C(=O)N[C@H](C(=O)O)[C@@H](C)O [VWIT] (H-VWIT-OH)")
0
>>> reported("N[C@@H](CO)C(=O)N[C@@H](Cc1c[nH]c2ccccc12)C(=O)N[C@@H](Cc1ccc(O)cc1)C(=O)N[C@@H](Cc1ccccc1)C(=O)O [SWYF] (H-SWYF-OH)")
1
>>> reported("CC(C)C[C@H](NC(=O)[C@H](C)NC(=O)[C@@H](N)CC(=O)O)C(=O)N[C@H](C(=O)O)C(C)C [DALV] (H-DALV-OH)")
0
>>> reported("CC[C@H](C)[C@H](NC(=O)[C@@H](NC(=O)[C@H](Cc1c[nH]cn1)NC(=O)[C@@H](N)CCC(N)=O)[C@@H](C)CC)C(=O)O [QHII] (H-QHII-OH)")
0
>>> reported("N[C@@H](Cc1c[nH]c2ccccc12)C(=O)N[C@@H](Cc1c[nH]c2ccccc12)C(=O)N[C@@H](CS)C(=O)N1CCC[C@H]1C(=O)O [WWCP] (H-WWCP-OH)")
0
>>> reported("CC[C@H](C)[C@H](NC(=O)[C@@H](NC(=O)[C@@H](N)CC(C)C)C(C)C)C(=O)N[C@@H](Cc1ccc(O)cc1)C(=O)O [LVIY] (H-LVIY-OH)")
1
>>> reported("CC(C)C[C@H](NC(=O)[C@H](C)NC(=O)[C@@H](N)C(C)C)C(=O)N[C@H](C(=O)O)C(C)C [VALV] (H-VALV-OH)")
0
>>> reported("CC[C@H](C)[C@H](NC(=O)[C@@H](NC(=O)[C@H](Cc1c[nH]cn1)NC(=O)[C@@H](N)CC(C)C)[C@@H](C)CC)C(=O)O [LHII] (H-LHII-OH)")
0
>>> reported("C[C@@H](O)[C@H](NC(=O)[C@H](Cc1ccccc1)NC(=O)[C@H](Cc1c[nH]c2ccccc12)NC(=O)[C@@H](N)CS)C(=O)O [CWFT] (H-CWFT-OH)")
0

* * *

Listed molecules paired with reported Concentration
Method Summary: Peptide hydrogel formation, vial-inverting method
Type: physicochemical
Experimental Setup: concentration at which the state was recorded: lowest of 30, 60, 90, 120 mM that gave a gel; 120 mM for non-gelating peptides
Where a SMILES comes first, the peptide text is derived from it.
Quantity: Concentration (µM)

>>> reported("CSCC[C@H](NC(=O)[C@H](CC(N)=O)NC(=O)[C@@H](NC(=O)CN)C(C)C)C(=O)O [GVNM] (H-GVNM-OH)")
120000
>>> reported("C[C@@H](O)[C@H](N)C(=O)N[C@H](C(=O)N[C@H](C(=O)N[C@H](C(=O)O)[C@@H](C)O)[C@@H](C)O)[C@@H](C)O [TTTT] (H-TTTT-OH)")
120000
>>> reported("C[C@@H](O)[C@H](NC(=O)[C@@H](N)CS)C(=O)N[C@@H](Cc1ccc(O)cc1)C(=O)N[C@@H](Cc1ccccc1)C(=O)O [CTYF] (H-CTYF-OH)")
30000
>>> reported("CC(C)C[C@H](N)C(=O)N[C@H](C(=O)N[C@@H](Cc1c[nH]c2ccccc12)C(=O)N[C@@H](Cc1ccccc1)C(=O)O)[C@@H](C)O [LTWF] (H-LTWF-OH)")
120000
>>> reported("CC(C)C[C@H](NC(=O)[C@H](CC(C)C)NC(=O)[C@H](Cc1ccccc1)NC(=O)[C@@H](N)CCCCN)C(=O)O [KFLL] (H-KFLL-OH)")
120000
>>> reported("CC(C)C[C@H](NC(=O)[C@@H](NC(=O)[C@H](CC(C)C)NC(=O)[C@@H](N)C(C)C)C(C)C)C(=O)O [VLVL] (H-VLVL-OH)")
120000
>>> reported("O=C(O)[C@H](Cc1ccc(O)cc1)NC(=O)[C@H](Cc1c[nH]c2ccccc12)NC(=O)[C@H](Cc1c[nH]c2ccccc12)NC(=O)[C@@H]1CCCN1 [PWWY] (H-PWWY-OH)")
120000
>>> reported("C[C@H](NC(=O)[C@@H](N)Cc1c[nH]c2ccccc12)C(=O)N[C@@H](Cc1ccc(O)cc1)C(=O)N[C@@H](Cc1ccccc1)C(=O)O [WAYF] (H-WAYF-OH)")
30000
>>> reported("CC[C@H](C)[C@H](NC(=O)[C@H](Cc1ccccc1)NC(=O)[C@H](Cc1c[nH]c2ccccc12)NC(=O)[C@@H](N)CC(C)C)C(=O)O [LWFI] (H-LWFI-OH)")
120000
>>> reported("N[C@@H](CS)C(=O)N[C@@H](Cc1c[nH]cn1)C(=O)N[C@@H](Cc1ccccc1)C(=O)N[C@@H](Cc1c[nH]c2ccccc12)C(=O)O [CHFW] (H-CHFW-OH)")
30000
>>> reported("C[C@H](NC(=O)[C@@H](N)CO)C(=O)N[C@@H](Cc1c[nH]c2ccccc12)C(=O)N[C@@H](Cc1ccccc1)C(=O)O [SAWF] (H-SAWF-OH)")
60000
>>> reported("N=C(N)NCCC[C@H](NC(=O)[C@H](CCCNC(=N)N)NC(=O)[C@H](CCCNC(=N)N)NC(=O)[C@@H](N)CCCNC(=N)N)C(=O)O [RRRR] (H-RRRR-OH)")
120000
>>> reported("NCCCC[C@H](NC(=O)[C@H](CCCCN)NC(=O)[C@H](CCCCN)NC(=O)[C@@H](N)CCCCN)C(=O)O [KKKK] (H-KKKK-OH)")
120000
>>> reported("CC(C)C[C@H](N)C(=O)N[C@H](C(=O)N[C@@H](Cc1ccccc1)C(=O)N[C@@H](Cc1ccccc1)C(=O)O)C(C)C")
30000
>>> reported("CSCC[C@H](NC(=O)[C@@H](N)Cc1ccccc1)C(=O)N[C@@H](CC(C)C)C(=O)N[C@@H](Cc1ccccc1)C(=O)O [FMLF] (H-FMLF-OH)")
30000
>>> reported("CC[C@H](C)[C@H](NC(=O)[C@@H](NC(=O)[C@@H](N)CC(N)=O)[C@@H](C)O)C(=O)N[C@@H](Cc1ccccc1)C(=O)O [NTIF] (H-NTIF-OH)")
60000
>>> reported("CSCC[C@H](NC(=O)[C@@H](N)CCC(N)=O)C(=O)N[C@H](C(=O)N[C@H](C(=O)O)C(C)C)C(C)C [QMVV] (H-QMVV-OH)")
120000
>>> reported("N[C@@H](CCC(=O)O)C(=O)N[C@@H](CCC(=O)O)C(=O)N[C@@H](CCC(=O)O)C(=O)N[C@@H](CCC(=O)O)C(=O)O [EEEE] (H-EEEE-OH)")
120000
>>> reported("CSCC[C@H](N)C(=O)N[C@H](C(=O)N[C@@H](Cc1ccccc1)C(=O)N1CCC[C@H]1C(=O)O)C(C)C [MVFP] (H-MVFP-OH)")
60000
>>> reported("CC(C)C[C@H](N)C(=O)N[C@@H](Cc1ccccc1)C(=O)N[C@@H](Cc1c[nH]c2ccccc12)C(=O)N[C@@H](CO)C(=O)O [LFWS] (H-LFWS-OH)")
120000
